# ASSAY SYSTEM: T1, human ROR1-Fz (Homo sapiens, UniProt Q01973)
# T1 construct: Frizzled (Fz, residues 165-305); HIS6 (C); purchased Acro Biosystems; host or cells: HEK293
# T1 sequence (Q01973 165-305): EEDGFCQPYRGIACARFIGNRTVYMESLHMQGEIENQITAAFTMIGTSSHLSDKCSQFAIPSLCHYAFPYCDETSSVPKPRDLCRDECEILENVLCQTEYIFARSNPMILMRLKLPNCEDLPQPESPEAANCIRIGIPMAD
# TEST: Biacore off-rate and kinetic analysis, ROR1 frizzled domain
# Assay type: binding
# TEST CONTEXT: Table 11 (SP34 light chain)
Reported Biacore human ROR1-Fz ka by item:
MEASUREMENT NAME: Biacore human ROR1-Fz ka (M⁻¹ s⁻¹)

| MOLECULE | UNIT ABBREVIATION | ENDPOINT VALUE |
| --- | --- | --- |
| SRP2196-B08 (antibody, V domains shown) VH: EVQLVESGGGLVQPGGSLRLSCAASGFNITGYYIHWVRQAPGKGLEWVGQISPNSGYTYLADSVKGRFTISADTSKNTAYLQMNSLRAEDTAVYYCARDSRRYVRGWDYWGQGTLVTVSS VL: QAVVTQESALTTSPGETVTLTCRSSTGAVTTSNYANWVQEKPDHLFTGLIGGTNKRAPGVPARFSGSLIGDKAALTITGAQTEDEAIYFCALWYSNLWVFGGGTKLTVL | M⁻¹ s⁻¹ | 156000 |
| SRP2196-B01 (antibody, V domains shown) VH: EVQLVESGGGLVQPGGSLRLSCAASGFNITGYYIHWVRQAPGKGLEWVGQISPNSGYTYYADSVKGRFTISADTSKNTTYLQMNSLRAEDTAVYYCARDSRRYVRSWDYWGQGTLVTVSS VL: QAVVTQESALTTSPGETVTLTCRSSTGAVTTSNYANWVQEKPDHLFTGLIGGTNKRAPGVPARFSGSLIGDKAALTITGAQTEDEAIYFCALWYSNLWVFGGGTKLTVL | M⁻¹ s⁻¹ | 131000 |
| SRP2196-C02 (antibody, V domains shown) VH: EVQLVESGGGLVQPGGSLRLSCAASGFNITGYHIHWVRQAPGKGLEWVGFISPNSGWTYSADSVKGRFTISADTSKNTAYLQMNSLRAEDTAVYYCARDSRRYVRPFDYWGQGTLVTVSS VL: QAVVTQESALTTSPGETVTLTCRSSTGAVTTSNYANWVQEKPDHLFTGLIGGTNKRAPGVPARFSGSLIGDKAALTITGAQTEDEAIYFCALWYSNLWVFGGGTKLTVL | M⁻¹ s⁻¹ | 119000 |
| SRP2196-C04 (antibody, V domains shown) VH: EVQLVESGGGLVQPGGSLRLSCAASGFNITGYYIHWVRQAPGKGLEWVGFIAPLSGSTHNADSVKGRFTISADTSKNTAYLQMNSLRAEDTAVYYCARESRRYVNPWDYWGQGTLVTVSS VL: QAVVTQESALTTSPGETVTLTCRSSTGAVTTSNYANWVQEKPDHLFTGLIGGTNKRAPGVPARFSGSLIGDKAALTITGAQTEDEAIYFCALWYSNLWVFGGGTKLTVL | M⁻¹ s⁻¹ | 131000 |
| SRP2196-B11 (antibody, V domains shown) VH: EVQLVESGGGLVQPGGSLRLSCAASGFNITGYYIHWVRQAPGRGLEWVGQISPNSGYTYYADSVKGRFTISADTSKNTAYLQMNSLRAEDTAVYYCARDSRRYIRSWDYWGQGTLVTVSS VL: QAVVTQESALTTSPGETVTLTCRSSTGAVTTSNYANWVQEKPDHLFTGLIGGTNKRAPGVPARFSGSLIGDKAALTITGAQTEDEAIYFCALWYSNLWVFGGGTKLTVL | M⁻¹ s⁻¹ | 137000 |
| SRP2196-B03 (antibody, V domains shown) VH: EVQLVESGGGLAQPGGSLRLSCAASGFNITGYYIHWVRQAPGKGLEWVGYISPNSGATHYADSVKGRFTISADTSKNTAYLQMNSLRAEDTAVYYCARDSRRYVRPFDYWGQGTLVTVSS VL: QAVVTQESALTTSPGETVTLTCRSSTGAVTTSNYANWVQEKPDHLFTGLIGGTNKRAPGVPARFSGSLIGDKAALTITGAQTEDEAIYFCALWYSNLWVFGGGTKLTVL | M⁻¹ s⁻¹ | 124000 |
